Experiment: physchem
Conditions: buffer, pH 6.5
quantity-name: solubility thermodynamic at 4 h (µM)
Give the value in µM but do not write µM after it.

In: For COCCCNC(=O)c1cc(S(N)(=O)=O)cnc1Sc1c(F)c(F)cc(F)c1F , write its solubility thermodynamic at 4 h.
Out: 124

In: For CCNC(=O)c1cc(S(N)(=O)=O)cc(F)c1SCC(C)C , write its solubility thermodynamic at 4 h.
Out: 395

In: For NS(=O)(=O)c1ccc(Sc2c(F)c(F)cc(F)c2F)nc1 , write its solubility thermodynamic at 4 h.
Out: 231

In: For NCCCCNC(=O)c1cc(S(N)(=O)=O)cnc1Sc1c(F)c(F)cc(F)c1F , write its solubility thermodynamic at 4 h.
Out: 3090

====

Experiment: Solubility at pH 6.5 after 24 hrs by chemiluminescence assay
Assay type: physicochemical
Conditions: buffer
Decide by solubility at 24 h: equal to or exceeding 90 µM means class 1, less means class 0.

In: Is it the case that CCNC(=O)c1cc(S(N)(=O)=O)cnc1Sc1cccc(F)c1 has solubility at 24 h reaching or exceeding 90 µM?
Out: class 0

In: Is it the case that CCNC(=O)c1cc(S(N)(=O)=O)cc(F)c1SC(C)C has solubility at 24 h reaching or exceeding 90 µM?
Out: class 1

In: Is it the case that COCCCNC(=O)c1cc(S(N)(=O)=O)cnc1Sc1c(F)c(F)cc(F)c1F has solubility at 24 h reaching or exceeding 90 µM?
Out: class 1

In: Is it the case that COCCCNC(=O)c1cc(S(N)(=O)=O)cnc1Sc1ccc(F)c(F)c1 has solubility at 24 h reaching or exceeding 90 µM?
Out: class 0

In: Is it the case that NS(=O)(=O)c1ccc(Sc2c(F)c(F)cc(F)c2F)c(C(=O)NCCc2ccccn2)c1 has solubility at 24 h reaching or exceeding 90 µM?
Out: class 1

In: Is it the case that CC(C)CNC(=O)c1cc(S(N)(=O)=O)ccc1SC(C)C has solubility at 24 h reaching or exceeding 90 µM?
Out: class 1

In: Is it the case that COCCCNCc1cc(S(N)(=O)=O)cnc1Sc1ccc(F)c(F)c1 has solubility at 24 h reaching or exceeding 90 µM?
Out: class 1

In: Is it the case that CCNC(=O)c1cc(S(N)(=O)=O)cnc1Sc1ccccc1 has solubility at 24 h reaching or exceeding 90 µM?
Out: class 1

In: Is it the case that CCNC(=O)c1cc(S(N)(=O)=O)ccc1SC1CCCC1 has solubility at 24 h reaching or exceeding 90 µM?
Out: class 1

In: Is it the case that NS(=O)(=O)c1ccc(Oc2ccccc2)c(C(=O)NCc2ccccc2)c1 has solubility at 24 h reaching or exceeding 90 µM?
Out: class 0

====

For each of the compounds below, state its solubility at 24 h.
Experiment: Solubility at pH 6.5 after 24 hrs by chemiluminescence assay
Assay type: physicochemical
Details: buffer
Give the value in µM but do not write µM after it.

In: For CCCNC(=O)c1cc(S(N)(=O)=O)cnc1Sc1ccccc1 , write its solubility at 24 h.
Out: 156

In: For CCNCc1cc(S(N)(=O)=O)cnc1Sc1ccc(F)c(F)c1 , write its solubility at 24 h.
Out: 449

In: For CCNC(=O)c1cc(S(N)(=O)=O)ccc1Sc1ccccc1 , write its solubility at 24 h.
Out: 205

In: For NS(=O)(=O)c1ccc(Sc2c(F)c(F)cc(F)c2F)nc1 , write its solubility at 24 h.
Out: 558

In: For CCNC(=O)c1cc(S(N)(=O)=O)cc(F)c1SCC(C)C , write its solubility at 24 h.
Out: 553
